- measured.target: BACE1 in primary mouse cortical neurons (mouse, UniProt P56818 46-501)
- Sequence (P56818 46-501): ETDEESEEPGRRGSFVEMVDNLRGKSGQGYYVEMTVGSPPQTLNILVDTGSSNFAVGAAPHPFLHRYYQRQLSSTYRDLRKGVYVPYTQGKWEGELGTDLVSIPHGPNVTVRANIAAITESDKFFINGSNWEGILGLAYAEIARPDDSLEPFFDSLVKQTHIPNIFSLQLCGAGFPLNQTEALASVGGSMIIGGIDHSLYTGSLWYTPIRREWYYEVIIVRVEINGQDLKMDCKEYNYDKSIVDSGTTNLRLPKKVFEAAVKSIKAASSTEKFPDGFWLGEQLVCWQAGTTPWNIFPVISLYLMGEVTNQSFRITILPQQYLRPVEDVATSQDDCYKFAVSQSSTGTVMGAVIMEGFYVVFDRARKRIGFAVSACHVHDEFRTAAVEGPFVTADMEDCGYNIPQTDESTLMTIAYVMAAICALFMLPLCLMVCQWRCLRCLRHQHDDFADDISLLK
- measurement.protocol: cell-based or functional assay
observation.type: IC50, Abeta x-40 in mouse cortical neurons (nM)
Write it as a number; the unit nM goes unstated.

Quick check: IC50, Abeta x-40 in mouse cortical neurons of 5982 (antibody, V domains shown, anti-BACE1 IgG) VH: QLQLQESGPGLVKPSETLSLTCTVSGGSISSSSYYWGWIRQPPGKGLEWIGNIYYSGSTYYNPSLKSRVTISVDTSKNQFSLKLSSVTAADTAVYYCARLGHGYSYFDLWGRGTLVTVSS VL: EIVLTQSPATLSLSPGERATLSCRASQSVSSYLAWFQQKPGQAPRLLIYDASNRATGIPARFSGSGSGTDFTLTISSLEPEDFAVYYCQQVYVWPPRTFGGGTKVEIK ?
27.3

Same thing, different binder: 5933 (antibody, V domains shown, anti-BACE1 IgG) VH: QLQLQESGPGLVKPSETLSLTCTVSGGSISRGSYYWGWIRQPPGKGLEWIGMIYYSGSTWYNPSLKSRVTISVDTSKNQFSLKLSSVTAADTAVYYCARVGHGVSYFDLWGRGTLVTVSS VL: EIVLTQSPATLSLSPGERATLSCRASQSVSSYLAWYQQKPGQAPRLLIYGASKRATGIPARFSGSGSGTDFTLTISSLEPEDFAVYYCQQVYTWPPRTFGGGTKVEIK
3.6

Same thing, different binder: 6293 (antibody, V domains shown, anti-BACE1 IgG) VH: QLQLQESGPGLVKPSETLSLTCTVSGGSISSSSYYWGWIRQPPGKGLEWIGMIYYSGSTWYNPSLRSRVTISVDTSKNQFSLKLSSVTAADTAVYYCARVGHGVSYFDLWGRGTLVTVSS VL: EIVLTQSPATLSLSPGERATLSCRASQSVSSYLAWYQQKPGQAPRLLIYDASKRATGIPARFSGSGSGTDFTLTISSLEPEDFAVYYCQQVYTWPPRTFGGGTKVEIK
0.88
